target: RIPK2 (human) (UniProt O43353); experiment: radiometric filter-binding kinase assay, Kinase HotSpot; conditions: compound 0.5 µM; ATP 10 µM
Sequence (O43353 whole entry, looked up): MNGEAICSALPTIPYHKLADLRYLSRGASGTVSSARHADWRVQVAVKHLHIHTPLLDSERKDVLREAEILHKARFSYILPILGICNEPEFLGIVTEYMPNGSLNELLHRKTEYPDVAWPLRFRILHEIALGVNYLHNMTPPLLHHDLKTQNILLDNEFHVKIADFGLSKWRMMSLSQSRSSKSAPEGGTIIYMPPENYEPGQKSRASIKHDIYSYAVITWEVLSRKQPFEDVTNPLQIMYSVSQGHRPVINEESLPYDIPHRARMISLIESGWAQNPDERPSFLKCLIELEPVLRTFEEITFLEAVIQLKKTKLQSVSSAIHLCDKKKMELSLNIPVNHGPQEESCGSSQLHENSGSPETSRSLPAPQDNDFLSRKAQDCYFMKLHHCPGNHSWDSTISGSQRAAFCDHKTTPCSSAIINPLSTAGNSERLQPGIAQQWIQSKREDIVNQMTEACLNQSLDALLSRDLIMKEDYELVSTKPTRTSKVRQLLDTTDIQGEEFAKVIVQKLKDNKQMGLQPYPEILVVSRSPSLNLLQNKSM
Measured residual activity, listed per entry.
Readout Type: residual activity (%)

1. Clc1ccc(Nc2nnc(Cc3ccncc3)c3ccccc23)cc1	111
2. O=C(Nc1ccc(Cl)cc1)c1ccccc1NCc1ccncc1	82.9
3. CC(C)[C@H](CO)Nc1nc(Nc2cccc(Cl)c2)c2ncn(C(C)C)c2n1	88.1
4. Nc1nc(Nc2ccc(S(N)(=O)=O)cc2)nn1C(=O)c1c(F)cccc1F	77.8
5. O=C1Nc2cc(Br)ccc2/C1=C1/Nc2ccccc2/C1=N\O	75.2
6. COc1ccc(-c2cnc3c(-c4ccsc4)cnn3c2)cc1	56.8

###

target: MARK1 (human) (UniProt Q9P0L2); assay: radiometric filter-binding kinase assay, Kinase HotSpot; conditions: compound 0.5 µM; ATP 10 µM
Sequence (Q9P0L2 whole entry, looked up): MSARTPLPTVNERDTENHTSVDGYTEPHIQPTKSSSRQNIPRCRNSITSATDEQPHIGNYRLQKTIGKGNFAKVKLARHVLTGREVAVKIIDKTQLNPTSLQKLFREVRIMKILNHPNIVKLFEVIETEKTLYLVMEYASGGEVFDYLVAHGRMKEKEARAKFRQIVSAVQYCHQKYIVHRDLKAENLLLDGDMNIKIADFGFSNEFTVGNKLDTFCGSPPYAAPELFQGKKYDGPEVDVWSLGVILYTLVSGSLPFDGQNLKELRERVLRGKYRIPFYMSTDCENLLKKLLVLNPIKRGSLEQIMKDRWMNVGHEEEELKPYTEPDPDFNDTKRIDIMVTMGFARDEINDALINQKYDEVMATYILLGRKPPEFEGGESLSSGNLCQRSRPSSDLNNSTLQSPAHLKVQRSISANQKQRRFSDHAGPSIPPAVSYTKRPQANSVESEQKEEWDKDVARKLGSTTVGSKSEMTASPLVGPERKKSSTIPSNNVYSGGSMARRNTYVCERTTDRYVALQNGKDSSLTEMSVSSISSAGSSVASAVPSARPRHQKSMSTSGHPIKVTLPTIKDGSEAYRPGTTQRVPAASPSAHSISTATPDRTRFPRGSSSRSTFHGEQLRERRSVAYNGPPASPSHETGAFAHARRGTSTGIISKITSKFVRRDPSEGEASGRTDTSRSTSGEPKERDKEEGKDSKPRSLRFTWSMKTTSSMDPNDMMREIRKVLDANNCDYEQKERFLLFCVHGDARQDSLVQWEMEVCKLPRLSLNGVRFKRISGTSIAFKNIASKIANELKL
Readout Type: residual activity (%)

1) CCCNC(=O)Nc1ccc(Oc2ncnc3cc(OC)c(OC)cc23)cc1Cl	97.6
2) O=C(Nc1ccc(Cl)cc1)c1ccccc1NCc1ccncc1	94.7
3) CCN1/C(=C/C(C)=O)Sc2ccc(OC)cc21	91
4) CC(C)n1cnc2c(Nc3cccc(Cl)c3)nc(NCCO)nc21	87.6
5) Clc1ccc(Nc2nnc(Cc3ccncc3)c3ccccc23)cc1	124

###

molecular target: CLK3 (human) (UniProt P49761); assay: radiometric filter-binding kinase assay, Kinase HotSpot; details: compound 0.5 µM; ATP 10 µM
Sequence (P49761 whole entry, looked up): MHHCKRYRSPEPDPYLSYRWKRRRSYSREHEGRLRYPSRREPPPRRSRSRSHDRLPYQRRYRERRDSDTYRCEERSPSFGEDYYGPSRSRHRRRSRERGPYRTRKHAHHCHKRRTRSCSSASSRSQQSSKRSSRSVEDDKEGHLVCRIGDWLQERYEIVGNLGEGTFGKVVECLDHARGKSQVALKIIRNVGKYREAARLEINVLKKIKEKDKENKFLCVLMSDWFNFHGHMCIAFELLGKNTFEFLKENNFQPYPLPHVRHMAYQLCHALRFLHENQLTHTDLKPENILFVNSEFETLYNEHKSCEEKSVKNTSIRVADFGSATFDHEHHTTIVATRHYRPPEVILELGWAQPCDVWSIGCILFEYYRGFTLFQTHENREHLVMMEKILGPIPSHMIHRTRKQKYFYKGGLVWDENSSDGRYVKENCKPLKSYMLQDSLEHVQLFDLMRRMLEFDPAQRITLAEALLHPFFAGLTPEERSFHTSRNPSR
Measured residual activity, listed per entry.
Readout Type: residual activity (%)

1. Nc1nc(Nc2ccc(S(N)(=O)=O)cc2)nn1C(=S)Nc1c(F)cccc1F	4.64
2. C#Cc1cccc(Nc2ncnc3cc(OCCOC)c(OCCOC)cc23)c1	108
3. Cc1cc2ncc(-c3ccccc3)nc2cc1C	92.8
4. O=C1Cc2c([nH]c3ccc([N+](=O)[O-])cc23)-c2ccccc2N1	106
5. Clc1ccc(Nc2nnc(Cc3ccncc3)c3ccccc23)cc1	105
6. O=C1Nc2ccccc2/C1=C\c1c(Cl)[nH]c2ccccc12	102
7. O=c1cc(-c2cccc3c2Sc2ccccc2S3)oc(N2CCOCC2)c1	121
8. O=C1Nc2cc(Br)ccc2/C1=C1/Nc2ccccc2/C1=N\O	71.2
9. COc1cc2ncnc(Nc3ccc(F)c(Cl)c3)c2cc1OCCCN1CCOCC1	106
10. Oc1ccc(-c2nc(-c3ccc(F)cc3)c(-c3ccncc3)[nH]2)cc1	101
11. CC(C)(C)c1nc2c3ccc(F)cc3c3c(=O)[nH]ccc3c2[nH]1	50.5

###

biological target: PAK1 (human) (UniProt Q13153); assay: radiometric filter-binding kinase assay, Kinase HotSpot; conditions: compound 0.5 µM; ATP 10 µM
Sequence (Q13153 whole entry, looked up): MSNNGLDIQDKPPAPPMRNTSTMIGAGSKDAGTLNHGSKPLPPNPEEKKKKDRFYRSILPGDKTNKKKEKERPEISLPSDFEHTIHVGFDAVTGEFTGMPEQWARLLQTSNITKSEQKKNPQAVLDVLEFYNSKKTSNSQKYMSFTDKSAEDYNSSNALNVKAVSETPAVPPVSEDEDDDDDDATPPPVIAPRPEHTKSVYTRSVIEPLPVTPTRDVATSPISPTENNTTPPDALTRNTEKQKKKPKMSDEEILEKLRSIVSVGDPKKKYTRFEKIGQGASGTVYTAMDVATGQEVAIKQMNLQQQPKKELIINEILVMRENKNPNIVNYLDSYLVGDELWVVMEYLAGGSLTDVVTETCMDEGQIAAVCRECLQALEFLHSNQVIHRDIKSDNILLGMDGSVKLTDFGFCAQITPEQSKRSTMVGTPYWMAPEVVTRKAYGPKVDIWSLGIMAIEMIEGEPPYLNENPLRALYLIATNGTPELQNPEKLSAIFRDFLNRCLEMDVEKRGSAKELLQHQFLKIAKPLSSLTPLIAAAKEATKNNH
Readout Type: residual activity (%)

1. Cc1ccc(NC(=O)c2ccc(CN3CCN(C)CC3)cc2)cc1Nc1nc(-c2cccnc2)cs1	104
2. CC(C)n1cnc2c(Nc3cccc(Cl)c3)nc(NCCO)nc21	97.1
3. Nc1nc(Nc2ccc(S(N)(=O)=O)cc2)nn1C(=S)Nc1c(F)cccc1F	29
4. O=C1Cc2c([nH]c3ccc([N+](=O)[O-])cc23)-c2ccccc2N1	36.7
5. Nc1n[nH]c2nnc(-c3c(-c4ccccc4)nn4ccccc34)cc12	91.9
6. Clc1ccc(Nc2nnc(Cc3ccncc3)c3ccccc23)cc1	116
7. O=C1Nc2cc(Br)ccc2/C1=C1/Nc2ccccc2/C1=N\O	89.8
8. NC(=O)c1ccc(N(C(N)=O)c2c(F)cccc2F)nc1-c1ccc(F)cc1F	110
9. CCN1/C(=C/C(C)=O)Sc2ccc(OC)cc21	92.9
10. O=c1cc(N2CCNCC2)oc2c(-c3ccccc3)cccc12	99
11. O=C(Nc1ccc(Cl)cc1)c1ccccc1NCc1ccncc1	94.9

###

Measured residual activity, listed per entry.
target: UniProt P14616; test: radiometric filter-binding kinase assay, Kinase HotSpot; details: compound 0.5 µM; ATP 10 µM
Sequence (P14616 whole entry, looked up): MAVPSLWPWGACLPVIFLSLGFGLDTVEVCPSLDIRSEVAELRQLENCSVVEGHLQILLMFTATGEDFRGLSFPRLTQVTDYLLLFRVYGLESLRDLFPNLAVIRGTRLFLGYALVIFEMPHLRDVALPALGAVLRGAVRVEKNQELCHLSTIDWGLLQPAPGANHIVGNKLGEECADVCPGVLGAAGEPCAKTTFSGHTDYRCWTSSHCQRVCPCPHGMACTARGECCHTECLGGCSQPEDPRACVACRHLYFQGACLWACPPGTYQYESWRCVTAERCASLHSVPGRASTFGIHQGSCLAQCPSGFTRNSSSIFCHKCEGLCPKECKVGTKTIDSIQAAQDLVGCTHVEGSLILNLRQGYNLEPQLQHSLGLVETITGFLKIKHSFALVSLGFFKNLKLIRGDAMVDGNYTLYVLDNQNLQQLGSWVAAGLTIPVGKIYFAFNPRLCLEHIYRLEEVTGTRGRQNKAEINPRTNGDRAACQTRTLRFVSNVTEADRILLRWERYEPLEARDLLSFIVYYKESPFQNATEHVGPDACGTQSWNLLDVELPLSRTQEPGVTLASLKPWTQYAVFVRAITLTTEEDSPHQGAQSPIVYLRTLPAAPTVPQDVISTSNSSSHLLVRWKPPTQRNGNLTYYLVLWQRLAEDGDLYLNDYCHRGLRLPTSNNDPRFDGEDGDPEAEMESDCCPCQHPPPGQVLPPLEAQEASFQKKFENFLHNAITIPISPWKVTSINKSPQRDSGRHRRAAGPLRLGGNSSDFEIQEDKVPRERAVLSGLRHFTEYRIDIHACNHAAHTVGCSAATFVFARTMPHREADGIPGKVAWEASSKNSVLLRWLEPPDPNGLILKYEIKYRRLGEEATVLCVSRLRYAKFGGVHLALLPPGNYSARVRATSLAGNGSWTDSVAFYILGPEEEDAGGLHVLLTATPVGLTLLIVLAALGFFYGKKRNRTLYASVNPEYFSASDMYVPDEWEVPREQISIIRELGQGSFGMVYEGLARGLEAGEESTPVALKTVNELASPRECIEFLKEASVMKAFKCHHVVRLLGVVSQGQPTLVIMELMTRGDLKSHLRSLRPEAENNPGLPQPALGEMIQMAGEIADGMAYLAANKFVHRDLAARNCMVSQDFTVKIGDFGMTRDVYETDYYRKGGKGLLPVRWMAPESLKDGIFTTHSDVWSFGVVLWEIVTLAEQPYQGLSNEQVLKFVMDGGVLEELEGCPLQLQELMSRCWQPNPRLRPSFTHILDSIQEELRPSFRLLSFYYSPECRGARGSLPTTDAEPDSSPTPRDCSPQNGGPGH
Readout Type: residual activity (%)

1. O=c1cc(-c2cccc3c2Sc2ccccc2S3)oc(N2CCOCC2)c1	98.7
2. CC(C)[C@H](CO)Nc1nc(Nc2cccc(Cl)c2)c2ncn(C(C)C)c2n1	88.2
3. Nc1nc(Nc2ccc(S(N)(=O)=O)cc2)nn1C(=O)c1c(F)cccc1F	93.8
4. CCCNC(=O)Nc1ccc(Oc2ncnc3cc(OC)c(OC)cc23)cc1Cl	98.4
5. COc1cc2nccc(Oc3ccc(NC(=S)NC(=O)c4ccccc4C)cc3)c2cc1OC	98.2
6. CCN1/C(=C/C(C)=O)Sc2ccc(OC)cc21	91.6
7. Cc1ccc(NC(=O)c2ccc(CN3CCN(C)CC3)cc2)cc1Nc1nc(-c2cccnc2)cs1	102
8. CS(=O)c1ccc(-c2nc(-c3ccc(F)cc3)c(-c3ccncc3)[nH]2)cc1 (stereo not given)	100
9. O=C1Nc2ccccc2/C1=C\c1c(Cl)[nH]c2ccccc12	93.7
10. COc1ccc(-c2cnc3c(-c4ccsc4)cnn3c2)cc1	98.7

###

target: CDK2 CCNA2 (human) (UniProt P24941+P20248); test: radiometric filter-binding kinase assay, Kinase HotSpot; conditions: compound 0.5 µM; ATP 10 µM
Sequence (P20248 whole entry, looked up, other chains not shown): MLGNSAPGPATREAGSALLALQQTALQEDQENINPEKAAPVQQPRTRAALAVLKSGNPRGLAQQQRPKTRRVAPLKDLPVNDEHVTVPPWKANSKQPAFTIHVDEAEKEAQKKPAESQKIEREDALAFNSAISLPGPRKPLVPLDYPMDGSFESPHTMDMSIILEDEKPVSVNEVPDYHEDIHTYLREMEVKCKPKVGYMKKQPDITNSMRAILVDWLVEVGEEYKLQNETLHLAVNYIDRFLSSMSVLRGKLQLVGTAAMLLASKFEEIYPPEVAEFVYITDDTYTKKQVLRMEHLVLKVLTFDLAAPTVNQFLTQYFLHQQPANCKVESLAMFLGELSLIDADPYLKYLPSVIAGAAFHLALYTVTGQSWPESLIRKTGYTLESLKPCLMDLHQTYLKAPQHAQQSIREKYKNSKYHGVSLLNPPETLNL
Readout Type: residual activity (%)

1. COc1cc2ncnc(Nc3ccc(F)c(Cl)c3)c2cc1OCCCN1CCOCC1	95.9
2. O=C(NC(NC(=S)Nc1ccc(F)c([N+](=O)[O-])c1)C(Cl)(Cl)Cl)C(c1ccccc1)c1ccccc1 (stereo not given)	102
3. CC(C)[C@H](CO)Nc1nc(Nc2cccc(Cl)c2)c2ncn(C(C)C)c2n1	6.91
4. O=c1cc(-c2cccc3c2Sc2ccccc2S3)oc(N2CCOCC2)c1	101
5. Nc1n[nH]c2nnc(-c3c(-c4ccccc4)nn4ccccc34)cc12	92.9
6. O=C1Nc2cc(Br)ccc2/C1=C1/Nc2ccccc2/C1=N\O	7.66
7. COc1ccc(-c2cnc3c(-c4ccsc4)cnn3c2)cc1	83
8. C#Cc1cccc(Nc2ncnc3cc(OCCOC)c(OCCOC)cc23)c1	95.9
9. CCN1/C(=C/C(C)=O)Sc2ccc(OC)cc21	89.7
10. Nc1nc(Nc2ccc(S(N)(=O)=O)cc2)nn1C(=S)Nc1c(F)cccc1F	1.56

###

Measured residual activity, listed per entry.
molecular target: UniProtKB P21802; experiment: radiometric filter-binding kinase assay, Kinase HotSpot; details: compound 0.5 µM; ATP 10 µM
Sequence (P21802 whole entry, looked up): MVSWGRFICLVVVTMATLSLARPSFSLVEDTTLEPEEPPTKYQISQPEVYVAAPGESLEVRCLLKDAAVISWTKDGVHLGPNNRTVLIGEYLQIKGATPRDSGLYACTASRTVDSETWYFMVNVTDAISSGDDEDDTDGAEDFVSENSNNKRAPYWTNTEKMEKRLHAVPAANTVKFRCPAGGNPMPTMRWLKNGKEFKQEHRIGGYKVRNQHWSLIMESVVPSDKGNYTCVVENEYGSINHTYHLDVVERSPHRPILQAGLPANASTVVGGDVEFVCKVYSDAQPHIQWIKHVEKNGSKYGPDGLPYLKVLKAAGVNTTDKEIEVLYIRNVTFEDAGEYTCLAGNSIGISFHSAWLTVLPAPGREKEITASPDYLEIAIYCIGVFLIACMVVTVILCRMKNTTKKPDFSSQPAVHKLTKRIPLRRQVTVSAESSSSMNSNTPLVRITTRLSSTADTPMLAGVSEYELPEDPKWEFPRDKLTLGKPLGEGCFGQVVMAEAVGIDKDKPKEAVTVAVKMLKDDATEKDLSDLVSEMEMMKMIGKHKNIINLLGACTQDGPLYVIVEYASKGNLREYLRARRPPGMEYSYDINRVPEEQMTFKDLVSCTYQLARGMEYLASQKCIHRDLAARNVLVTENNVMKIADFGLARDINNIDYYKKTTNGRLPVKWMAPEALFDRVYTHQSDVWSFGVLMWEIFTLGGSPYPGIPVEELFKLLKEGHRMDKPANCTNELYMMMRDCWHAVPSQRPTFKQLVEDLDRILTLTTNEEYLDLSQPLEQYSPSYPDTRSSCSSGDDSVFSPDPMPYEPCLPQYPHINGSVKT
Readout Type: residual activity

1. CC(C)n1cnc2c(Nc3cccc(Cl)c3)nc(NCCO)nc21	94.5%
2. NC(=O)c1ccc(N(C(N)=O)c2c(F)cccc2F)nc1-c1ccc(F)cc1F	99.5%
3. COc1ccc(-c2cnc3c(-c4ccsc4)cnn3c2)cc1	92.4%
4. Cc1ccc(NC(=O)c2ccc(CN3CCN(C)CC3)cc2)cc1Nc1nc(-c2cccnc2)cs1	100%
5. O=c1cc(-c2cccc3c2Sc2ccccc2S3)oc(N2CCOCC2)c1	98.7%
6. Nc1n[nH]c2nnc(-c3c(-c4ccccc4)nn4ccccc34)cc12	102%
7. CC(C)[C@H](CO)Nc1nc(Nc2cccc(Cl)c2)c2ncn(C(C)C)c2n1	105%
8. O=C1Nc2cc(Br)ccc2/C1=C1/Nc2ccccc2/C1=N\O	59.2%
9. CS(=O)c1ccc(-c2nc(-c3ccc(F)cc3)c(-c3ccncc3)[nH]2)cc1 (stereo not given)	103%
10. O=C1Cc2c([nH]c3ccc([N+](=O)[O-])cc23)-c2ccccc2N1	96.7%

###

biological target: DAPK1 (human) (UniProt P53355); assay: radiometric filter-binding kinase assay, Kinase HotSpot; conditions: compound 0.5 µM; ATP 10 µM
Readout Type: residual activity (%)

1) CC(C)n1cnc2c(Nc3cccc(Cl)c3)nc(NCCO)nc21	78.8
2) Nc1nc(Nc2ccc(S(N)(=O)=O)cc2)nn1C(=S)Nc1c(F)cccc1F	81.3
3) Oc1ccc(-c2nc(-c3ccc(F)cc3)c(-c3ccncc3)[nH]2)cc1	95
4) O=C(NC(NC(=S)Nc1ccc(F)c([N+](=O)[O-])c1)C(Cl)(Cl)Cl)C(c1ccccc1)c1ccccc1 (configuration not stated)	75.1
5) C#Cc1cccc(Nc2ncnc3cc(OCCOC)c(OCCOC)cc23)c1	103
6) Cc1ccc(NC(=O)c2ccc(CN3CCN(C)CC3)cc2)cc1Nc1nc(-c2cccnc2)cs1	97.5
7) CCCNC(=O)Nc1ccc(Oc2ncnc3cc(OC)c(OC)cc23)cc1Cl	104
8) O=C1Nc2ccccc2/C1=C\c1c(Cl)[nH]c2ccccc12	88.1
9) O=C1Nc2cc(Br)ccc2/C1=C1/Nc2ccccc2/C1=N\O	90
10) O=C1Cc2c([nH]c3ccc([N+](=O)[O-])cc23)-c2ccccc2N1	104
11) O=c1cc(N2CCNCC2)oc2c(-c3ccccc3)cccc12	91.1
12) COc1cc2nccc(Oc3ccc(NC(=S)NC(=O)c4ccccc4C)cc3)c2cc1OC	101
13) CCN1/C(=C/C(C)=O)Sc2ccc(OC)cc21	109
14) O=c1cc(-c2cccc3c2Sc2ccccc2S3)oc(N2CCOCC2)c1	82.7
15) Nc1n[nH]c2nnc(-c3c(-c4ccccc4)nn4ccccc34)cc12	95.9
16) Cc1cc2ncc(-c3ccccc3)nc2cc1C	88.4
17) Clc1ccc(Nc2nnc(Cc3ccncc3)c3ccccc23)cc1	105
18) CSc1nc(-c2ccc(F)cc2)c(-c2ccnc(NC(C)c3ccccc3)c2)[nH]1 (configuration not stated)	101
19) CC(C)[C@H](CO)Nc1nc(Nc2cccc(Cl)c2)c2ncn(C(C)C)c2n1	99.7
20) COc1ccc(-c2cnc3c(-c4ccsc4)cnn3c2)cc1	103
21) CS(=O)c1ccc(-c2nc(-c3ccc(F)cc3)c(-c3ccncc3)[nH]2)cc1 (configuration not stated)	90.3
22) O=C(Nc1ccc(Cl)cc1)c1ccccc1NCc1ccncc1	99.9
